Target entity: T1, CXCL7 (human)
T1 chain: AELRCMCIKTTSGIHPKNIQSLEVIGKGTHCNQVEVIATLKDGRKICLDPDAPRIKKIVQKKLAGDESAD
Measurement notes: BLI
Readout name: Kd (nM)

[
  {
    "Binder": "P1142 (natural protein, glycosylated (periodic acid–Schiff staining)) DGGKPQILQRTDHSTDSDWDPQMCPETCNPSKNISCSSECLCVTLGGGDETGTCFNMSGVDWLGHAQASDGHNDGGGASAWSHPQFEKLEHHHHHHHH",
    "Result": 1.83
  },
  {
    "Binder": "P1126 (natural protein, also: glycosylated) DGGKPQILQRTDKSTDSEWDPQTCPETCIPSKNITCSDGCVCVKLGEEEEGTCFNMTGVDWLGSPSDD",
    "Result": 6.05
  }
]
